Tested on: SiHa
Assay: Cytotoxicity against human SiHa cells by MTT assay
Type: functional, cell-based
Task for the reader: assign each of the following compounds its reported IC50.
The answer is to be given in nM; state only the numeric part.

Which IC50 is listed for O=C(c1cc(-c2ccc([N+](=O)[O-])cc2)n2nc(-c3ccccc3)cc2n1)N1CCN(C(=O)c2ccccc2NCc2cccc3c2OCO3)CC1 ? 1990

IC50 for COc1ccc(-c2cc(-c3nn4cc(-c5ccncc5)cnc4c3S(=O)(=O)c3cc([N+](=O)[O-])c(OC)c([N+](=O)[O-])c3)on2)cc1 ? 80

Looking for the measured IC50 of O=C(c1cc(-c2ccccc2)n2nc(-c3ccccc3)cc2n1)N1CCN(C(=O)c2ccccc2NCc2ccco2)CC1 , can you help? 1930

For the compound COc1ccc(-c2cc(C(=O)N3CCN(C(=O)c4ccccc4NCc4cccs4)CC3)nc3cc(-c4ccccc4)nn23)cc1OC , what IC50 is on record? 1810

Could you share which IC50 value was measured for COc1ccc(-c2cc(-c3nn4cc(-c5ccncc5)cnc4c3S(=O)(=O)c3ccc(OC)cc3)on2)cc1 ? 1770

Form field: reported IC50 of COc1cc(CNc2ccccc2C(=O)N2CCN(C(=O)c3cc(-c4cc(OC)c(OC)c(OC)c4)n4nc(-c5ccccc5)cc4n3)CC2)cc(OC)c1OC 1910

# input compound: COc1ccc(-c2cc(-c3nn4cc(-c5ccncc5)cnc4c3S(=O)(=O)c3cc(OC)cc(OC)c3)on2)cc1 ; wanted: its IC50 990

May I ask what IC50 has been recorded for COc1ccc(-c2cc(-c3nn4cc(-c5ccncc5)cnc4c3S(=O)(=O)c3ccc([N+](=O)[O-])cc3)on2)cc1 ? 2100

----------
Test system: Candida albicans
Assay: Antifungal activity against Candida albicans assessed as zone of inhibition; also: test concentration or dose not given here
Format: functional
Returns one of criterion met or criterion not met; criterion met when inhibition zone (IZ) is >= 20 mm.

Does the compound COC1=CC(=O)C[C@@H](C)[C@]12Oc1c(Cl)c(OC)cc(OC)c1C2=O [GRISEOFULVIN] have recorded inhibition zone (IZ) that is 20 mm or more? criterion not met

Say whether C[C@@H]1C[C@@H]([C@H](O)CC2CC(=O)NC(=O)C2)C(=O)[C@@H](C)C1 [CYCLOHEXIMIDE] shows inhibition zone (IZ) of 20 mm or more. criterion met

Hi team, for Cc1cc(NN2C(=O)C3CCCCC3C2=O)n2ncc(C#N)c2n1 (stereo not given) , is the recorded inhibition zone (IZ) at or above 20 mm? criterion not met

For this compound, is measured inhibition zone (IZ) 20 mm or higher? Cc1cc(-n2ncc(C#N)c2N)n2ncc(C#N)c2n1 criterion not met

# check: inhibition zone (IZ) of COc1ccc(Nc2nn3c(N)c(C#N)c(-c4ccc(C)cc4)nc3c2C(=O)Nc2ccc(Cl)cc2)cc1 is greater than or equal to 20 mm criterion not met

----------
Tested on: HepG2
Assay: Cytotoxicity against human HepG2 cells by MTT assay
Assay type: functional, cell-based
Property Name: IC50 (µg/mL)
Give the value in µg/mL but do not write µg/mL after it.

What does the record list as IC50 for Nc1nc2c(/N=N/c3ccc(C(F)(F)F)cc3)c(N)nn2c(N)c1/N=N/c1ccc(C(F)(F)F)cc1 ? 0.6

Consider the compound shown here: Nc1nc2c(/N=N/c3ccc(C(F)(F)F)cc3)c(N)nn2c(N)c1/N=N/c1ccc(S(=O)(=O)Nc2ncccn2)cc1 What is its recorded IC50? 3.4

Request the reported IC50 associated with CC1=CC(c2ccccc2)n2nc(-c3ccccc3)cc2N1 (stereo not drawn) 0.64
